- Test system: SR leukemia
- ASSAY METHOD TEXT: NCI-60 one-dose screen, 48 h
- CONDITION CONTEXT: 10 µM unless noted
The panel holds about 83,000 compounds, 20% with a hit somewhere; the sample as a whole holds those more often. Activity calls are given as the source filed them. Rule for the calls: active = growth percent below 10; inactive = the rest.
Write down the outcome that applies. Available outcomes: active, inactive

CN(C)C(=O)c1cc(-c2ccc3ncnc(NCc4ccccc4)c3c2)cnc1N    inactive

Per the records of this test, what outcome belongs to COc1cc(-c2nnc(SCc3ccc(O)c4ncccc34)n2-c2ccccc2)cc(OC)c1OC ?
inactive

Param item: CC(c1ccccc1)N1CSc2nc3ncncc3n2C1 (configuration not stated)
inactive

* * *

- System: T-47D breast
- ASSAY METHOD TEXT: NCI-60 one-dose screen, 48 h
- CONDITION CONTEXT: 10 µM unless noted
Compounds without any hit were thinned out: in the full panel of roughly 83,000, 20% have a hit. Active and inactive are the calls of the source. Rule for the calls: active = growth percent below 10; inactive = the rest.
The reply should name one outcome from active, inactive

O=c1[nH]c2ccccc2cc1CSc1ccccc1Nc1nccc(-c2ccc(Cl)cc2)n1    inactive
CC(C)(C)c1ccc(CC(=O)Nc2sc3c(c2C(N)=O)CCC(=O)C3)cc1    active
CCNC(=O)N1CCc2cc(OC)c(OCCc3ccc(OC)cc3)cc2C1c1ccc([N+](=O)[O-])cc1C (centres undefined)    inactive
CC1(C)CC[C@]23CC[C@]4(C)[C@H](CC[C@@H]5[C@@]6(C)CCCN(CO)C(C)(C)[C@@H]6CC[C@]54C)[C@H]2[C@H]1OC3    inactive
CCCCCCCn1cc2c(N[C@H](C)c3ccccc3)ncnc2n1    inactive
Cc1ccc(CSc2nc(-c3ccc(Cl)cc3)c(C#N)c(N3CCOCC3)n2)cc1    inactive
Cc1cccc2c3c(sc12)C(c1ccc(F)cc1)C(C#N)=C(/N=C/c1ccc(Cl)cc1)O3 (centres undefined)    inactive
O=C(Nc1nc2ccc([N+](=O)[O-])cc2s1)Nc1ccccc1Cl    active
CCO/C=N/C1=C(C#N)C(c2ccc(Cl)cc2)c2sc3c(C)cccc3c2O1 (centres undefined)    inactive
CC(=O)N1C(=S)NC(=O)C1CC(C)C (centres undefined)    inactive

I'd appreciate the recorded outcome for COc1cc2oc(-c3cccc(N)c3)cc(=O)c2c(OC)c1OC from this test.
inactive

How about NC(N)=Nc1ccc(Nc2cccc(Nc3ccc(Cl)c(C(F)(F)F)c3)c2)cn1 ?
inactive

Input CC(=O)C1=C(C)NC(NNC(N)=S)=NC1c1ccccc1 (centres undefined)
inactive

And then Cc1ccc(NC(=S)NNC(=S)Nc2ccc(C)cc2)cc1 , what is it?
inactive

Would you mind doing NC(N)=Nc1ccc(Oc2cccc(Nc3ccc(Br)c(C(F)(F)F)c3)c2)cn1 as well?
inactive

Check Cc1ccc2c(c1)Oc1nc(N)c(C#N)c(N)c1C2Sc1ccc(F)cc1 (centres undefined) too.
active

Moving on to COc1ccc(/C=C/C(=O)c2cccc(NC(=O)CSc3nc4ccccc4c(=O)n3-c3ccccc3)c2)cc1OC
inactive

Try O=C(O)c1ccc(-n2cc(CNc3cccc(Cl)c3)c(-c3ccc(F)cc3)n2)cc1 next.
inactive

* * *

Documented growth across a set of compounds
- Test system: NCI-H460 lung
- ASSAY METHOD TEXT: NCI-60 one-dose screen, 48 h (100 = growth as untreated, 0 = no growth, -100 = all killed)
- CONDITION CONTEXT: 10 µM unless noted
About 83,000 compounds went through this panel and 20% of them were active in at least one assay; those are over-represented in the sample as a whole. Active and inactive are the calls of the source. Rule for the calls: active = growth percent below 10; inactive = the rest.

Here is how some compounds turned out for growth.
CC(C)(C)CC(C)(C)n1nnnc1C(Nc1nccs1)c1cc2cccc3ccc4cccc1c4c32 (centres undefined)    103% (inactive)
COc1c(N2CC3CCCNC3C2)c(F)cc2c(=O)c(C(=O)N/N=C/c3ccc(N(C)C)cc3)cn(C3CC3)c12 (centres undefined)    78.3% (inactive)
O=S(=O)(NC1c2ccccc2C[C@H]1O)c1ccc(Cl)cc1Cl (some centres undefined)    101% (inactive)

Turning now to a further record.
I am curious: what growth value has been reported for COc1c(N2CC3CCCNC3C2)c(F)cc2c(=O)c(C(=O)N/N=C/c3ccc(Br)cc3)cn(C3CC3)c12 (centres undefined) ?
86% (inactive)

* * *

- Tested on: BT-549 breast
- ASSAY METHOD TEXT: NCI-60 one-dose screen, 48 h (100 = growth as untreated, 0 = no growth, -100 = all killed)
- CONDITION CONTEXT: 10 µM unless noted
The panel holds about 83,000 compounds, 20% with a hit somewhere; the sample as a whole holds those more often.
Assign class by growth: not lower than 50% means yes; lower than 50% means no.

Sample answers from the record:
Cn1ccnc1C(=O)/C=C/c1ccc(CNC(=O)c2ccc(F)cc2)cc1    no
COC(=O)c1[nH]nc2c1C1(C(=O)c3cccc4cccc1c34)C(C#N)=C(N)O2 (stereo not drawn)    yes
COc1cccc2c1CN(C(=O)c1ccc(O)c(C(=O)N3Cc4ccc(OCCC[P+](c5ccccc5)(c5ccccc5)c5ccccc5)cc4C3)c1)C2    yes
O=C(Nc1ccc(F)c(F)c1)c1cc(-c2ccc(F)cc2F)ccc1O    no
NS(=O)(=O)c1ccc(Nc2nc(N/N=C/CCc3ccccc3)nc(Nc3ccccc3)n2)cc1    yes

Does growth meet or surpass 50% for O=C(NCCn1ccnc1)c1ccc(-c2nc3ccc4[nH]ncc4c3c3c2CCCC3)cc1 ?
no

Request: O=C(Cn1c(-c2ccccc2)nc2cc(Cl)c(Cl)cc21)N=Nc1c(O)[nH]c2ccc(Cl)cc12
yes

Same question, CNC(=O)c1cc(Oc2ccc3nc(NC(=O)c4cccc(OC(F)(F)F)c4)sc3c2)ccn1 this time
yes

Now the same for COc1ccccc1N1CCN(C2=CC(=O)C(C)=C(C)C2=O)CC1
yes

Ok, now CCOC(=O)C1=NNC(c2ccc(Cl)cc2)C1C(=O)N1C(=S)NC(=O)C1CC(C)C (stereo not drawn)
yes

Can you handle CCCn1cnc2c(c1=N)C(c1ccc(Cl)cc1)c1sc3c(CC)cccc3c1O2 (stereo not drawn) next?
no

And the next one, CCc1cccc2c3c(sc12)C(c1ccc(Cl)cc1)C(C#N)=C(/N=C/c1ccc(Cl)cc1)O3 (stereo not drawn) ?
yes

Moving on to the next compound: NS(=O)(=O)c1ccc(Nc2nc(SCc3ccccc3)nc3ccccc23)cc1
yes

* * *

- Test system: NCI-H522 lung
- ASSAY METHOD TEXT: NCI-60 one-dose screen, 48 h (100 = growth as untreated, 0 = no growth, -100 = all killed)
- CONDITION CONTEXT: 10 µM unless noted
Compounds without any hit were thinned out: in the full panel of roughly 83,000, 20% have a hit.
OUTCOME MEASURE: growth (%)
Expressed in %, but write only the number.

COc1ccc(C2CC(c3ccc(Nc4nc(NCCO)nc(N5CCOCC5)n4)cc3)=Nc3c(N)nc(N)nc3N2)cc1 (stereo not given)    95.6

Query (compound): C#Cc1nc(C(=O)NCCC(=O)Nc2ccc(NC(=O)c3ccc(/C=C/C(=O)c4nccn4C)cc3)cc2)cs1 ; field requested: growth
14.9

Entry C#CCn1cccc1CNc1ccc(OC)cc1 please
-57.7

Now consider c1cn2c(ccc3nc(-c4cn[nH]c4)c4c(c32)CCCC4)n1 .
62.8

Try CCNC(=O)N1CCc2cc(OC)c(OCCc3ccc(OC)c(N)c3)cc2C1c1ccc(C)cc1C (stereo not given) next.
-30.2

What about O=C(NNc1nc2cc(F)ccc2n2c(CO)ccc12)c1cnccn1 ?
2.58

Lookup NC(=O)c1c(NC(=O)c2ccccc2C(F)(F)F)sc2c1CCC(=O)C2
-1.13

Entry O=C(Nc1nonc1-c1ccccc1)c1ccc(C(F)(F)F)cc1 please
82.7

Field entry: Cn1cc(CNc2nc3ccc(OC/C(=C/F)CN)cc3o2)ccc1=O
99.2

* * *

- Test system: DU-145 prostate
- ASSAY METHOD TEXT: NCI-60 one-dose screen, 48 h (100 = growth as untreated, 0 = no growth, -100 = all killed)
- CONDITION CONTEXT: 10 µM unless noted
This is part of a sample that, as a whole, favours compounds with a hit. Of some 83,000 tested, about 20% had one in any assay.
OUTCOME MEASURE: growth (%)
Could you give me the number in %? Just the number is fine.

CC(=O)c1ccc(Nc2nc(SCC(C)C)nc(-c3ccccc3)c2C#N)cc1    107
CCCC(=O)NC(c1cccnc1)c1cc(C(C)(C)C)c2cccnc2c1O (stereo not given)    31.8
Cc1c(F)cc(C(N)=O)cc1NCC(=O)Nc1ccc([N+](=O)[O-])cc1    86.7
Cn1ccnc1C(=O)/C=C/c1ccc(CNC(=O)c2ccc(Cl)cc2)cc1    10.2

Okay, now this molecule:
What value of growth has been reported for the following molecule? CCO/C=N/C1=C(C#N)C(c2ccc(F)cc2)c2sc3c(C)cccc3c2O1 (stereo not given)
12.4

Measured values drawn from PubChem BioAssay (NCI) for this set.
